test system: HL-1; assay: relative cell viability (CellTiter-Glo) vs DMSO control (% of DMSO control); higher = more viable cells; conditions: oxygen condition: normoxia 72 h; 200 nM
Counter-ions that a name gives are not always drawn.
Assign labels as follows, please: condition met for relative cell viability below 100; condition not met for relative cell viability equal to or exceeding 100.

Solved cases (3 shown):
Molecule: CCCS(=O)(=O)Nc1ccc(F)c(C(=O)c2c[nH]c3ncc(-c4ccc(Cl)cc4)cc23)c1F
Class Label: condition met
--
Molecule: C=CC(=O)Nc1cc(Nc2nccc(-c3cn(C)c4ccccc34)n2)c(OC)cc1N(C)CCN(C)C
Class Label: condition met
--
Molecule: Cc1ccc(S(=O)(=O)NC(=O)NN2CC3CCCC3C2)cc1 (centres undefined) [Gliclazide]
Class Label: condition not met

Q: Does the reported relative cell viability of the following molecule sit strictly below 100? CCCCN1CCCCC1C(=O)Nc1c(C)cccc1C (centres undefined) [Bupivacaine hydrochloride]
Ans: condition not met

Q: relative cell viability strictly < 100 for this molecule? CC(=O)Nc1ccccc1 [Acetanilide]
Ans: condition met

Q: Please indicate whether the reported relative cell viability of `COc1ccc2[nH]cc(CCNC(C)=O)c2c1` is strictly below 100.
Ans: condition not met
